Attribution: PubChem BioAssay

Consider the following compounds; for each one, report its z-score.
assay: blood-stage malaria parasite viability loss – strain 3D7, DAPI fluorescence, 100 nL, primary screen (AID 1184);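 further: parasites grown inside human red blood cells in medium with human serum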; details: P. falciparum 3D7 growth, 3 d, higher = more signal
Answers are plain numbers.

## Task Endpoint output: z-score of C[N+](C)(C)CCCC[C@@H]1NC(=O)[C@H]2C[C@@H](C(=O)NCCCCCNC(=O)CS)[C@@H](c3cccc(OCCO)c3)N2C1=O . Value?
## Result -0.222

## Task Can you look up the measured z-score of NCCCCCCNC(=O)[C@@H]1C[C@@H]2C(=O)N3CCC[C@H]3C(=O)N2[C@@H]1c1cccc(OCCO)c1 for me?
## Result -0.772

## Task Need z-score, item CCCN1C(=O)[C@@]2(c3ccc([N+](=O)[O-])cc3)CC(=O)N(CC34CC5CC(CC(C5)C3)C4)[C@@H]2c2ccc(CO)cc21
## Result 0.877

# per-item lookup of z-score; items listed below
1. C[N+](C)(C)CCCCNC(=O)[C@H]1C[C@H]2C(=O)N[C@@H](Cc3ccccc3)C(=O)N2[C@H]1c1cccc(OCCO)c1
2. CC(C)(C)N1CC=CC23O[C@@H]4/C=C\CCCOC(=O)C4[C@H]2C(=O)N(CCCCCO)[C@@H]3C1=O (some centres not stated)
3. [N-]=[N+]=NCc1ccccc1[C@@H]1OC(c2ccc(OCCCO)cc2)=N[C@]1(Cc1ccccc1N=[N+]=[N-])C(=O)NCC(O)CO (some centres not stated)
4. C=C(CCCC)/C(=C/C[C@H](OC(=O)c1ccncc1)c1ccccc1OCCO)c1cc(C(=O)OC)ccc1OC

## Result
1. -0.352
2. 1.91
3. -2.31
4. -3.07

----------
Record form. Attribute: composite z-score. Fill in for each entry.
tested on: Wnt5a (protein binding on small-molecule microarray); assay: small molecules binding Wnt5a protein – biophysical, small-molecule microarray, 635/667 nm fluorescence, primary screen (AID 1142); conditions: 635 nm fluorescence, higher = more signal;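 further: fluorescence read at 667 nm with signal to noise per printed feature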

Before answering, review these 4 worked examples.
## Task Entry COc1cc(C(O)C2C=CC3C(=O)N(c4ccccc4)C(=O)C3N2Nc2ccccc2F)cc(OC)c1OC (stereo not given) : reported composite z-score = ?
## Result 0.36

## Task # get_value(readout='composite z-score', item= O=C1C2C=CC(C(O)C3CCCCC3)N(n3cnnc3)C2C(=O)N1Cc1ccccc1 (stereo not given) )
## Result 0.364

## Task Using the record for C=CCOC(=O)[C@H]1[C@@H]2C(=O)O[C@@H](c3ccccc3)[C@@H](c3ccccc3)N2[C@@H](c2ccc(OCCOC(=O)[C@@H]3C[C@@H]4C(=O)N[C@@H](CCCCNC(C)=O)C(=O)N4[C@@H]3c3cccc(OCCO)c3)cc2)[C@]12C(=O)Nc1ccccc12 , report its composite z-score.
## Result 0.455

## Task # composite z-score lookup, item COc1ccc([Si](C)(C)[C@@H]2[C@@H](CC(=O)N3CCC[C@H]3CO)O[C@]3(C(=O)N(Cc4ccc(N5CCOC5=O)cc4)c4ccccc43)[C@H]2C)cc1
## Result -0.014

Shifting focus to the compound that follows.
## Task Return reported composite z-score; argument: C=C(C)[C@@H]1CC=C(C(O)C2C=CC3C(=O)N(C)C(=O)C3N2Nc2ccc([N+](=O)[O-])cc2[N+](=O)[O-])CC1 (stereo not given in full)
## Result 0.291

----------
I'd be grateful if you could share measured composite z-score for these entries.
assay: binders from COS7 lysate, DM2A8 probe, primary screen, torsin A project, cell lysate, small-molecule microarray, fluorescence 635/667 (AID 1065); conditions: higher = more signal, COS7 lysate expressing mutant human TOR1A
Answers are plain numbers.

Solved cases (5 shown):
## Task Item CCCCCC1=C2CNC(Cc3ccccc3)(C(=O)OC)C=C2C(C)C1=O (stereo unspecified) has what recorded composite z-score?
## Result 0.249

## Task Recorded composite z-score of COC(=O)[C@@]1(Cc2ccccc2)[C@H]2c3cc(C(=O)N(C)C)n(CCSC(=N)N)c3C[C@H]2CN1C(=O)c1ccccc1 , please.
## Result -0.512

## Task I'd like to know its composite z-score. The compound in question is CC(C)[Si](C#CCCc1ccccc1)(O[C@H](c1ccccc1)c1cn(Cc2ccccc2)nn1)C(C)C
## Result -0.137

## Task Item under review: COC(=O)[C@]1(CCC(=O)OC(C)(C)C)N=C(c2ccc(OCCCO)cc2)O[C@@H]1c1ccccc1N=[N+]=[N-] . Reported composite z-score?
## Result -0.135

## Task Could you share which composite z-score value was measured for CN(C)c1ccc(C(O)C2C=CC3C(=O)N(Cc4ccccc4)C(=O)C3N2n2cnnc2)cc1 (stereo unspecified) ?
## Result 0.0666

For the next question, use this compound.
## Task For the compound shown here, CN(C)CCCCNC(=O)[C@H]1C[C@H]2C(=O)N3CCC[C@H]3C(=O)N2[C@H]1c1cccc(OCCO)c1 , give the reported composite z-score.
## Result 0.76

----------
assay: optical density change of DRC41 E. coli – strain DRC41, OD650, 24 h, E. coli filamentation project, primary screen (AID 1093);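 further: MC1000 strain lacking acrAB efflux and sulA so SOS filamentation is blocked; test concentration not given here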; settings: E. coli DRC41 growth, higher = more signal, called active from +8 up or from −8 down
I would appreciate it if you labelled entries Met when z-score is -0.3 or higher, otherwise Not met.

## Task For this molecule, is measured z-score -0.3 or higher? CC(C)OC(=O)CC(=O)CC(O)c1cccc([N+](=O)[O-])c1 (stereo not drawn)
## Result Met

## Task Does z-score meet or surpass -0.3 for COC(=O)[C@@]1(Cc2ccc(F)cc2)[C@H]2c3cc(C(=O)N(C)C)n(C)c3C[C@H]2CN1C(=O)c1ccccc1 ?
## Result Not met

## Task Could you verify whether the entry COC(=O)[C@@]1(Cc2ccccc2)[C@H]2c3cc(C(=O)N(C)C)n(CCSC(=N)N)c3C[C@H]2CN1C(=O)c1ccccc1 shows z-score of no less than -0.3?
## Result Met

## Task Assess whether reported z-score for COCCOC(=O)N1C(=O)[C@@]2(c3cc(C#CCCO)ccc31)[C@H](C(N)=O)[C@H]1C(=O)O[C@H](c3ccccc3)[C@H](c3ccccc3)N1[C@@H]2c1ccccc1OCCO sits at -0.3 or higher.
## Result Not met

## Task # check: z-score of CC1CC/C=C\[C@H]2OC34C=CCN(c5ccc6ccccc6c5)C(=O)[C@H]3N(C(C)CO)C(=O)[C@@H]4C2C(=O)O1 (stereo partly drawn) is greater than or equal to -0.3
## Result Not met

## Task Given the entry COCCOC(=O)N1C(=O)[C@@]2(c3cc(C#CCCO)ccc31)[C@H](c1ccccc1OCCO)N1[C@H](c3ccccc3)[C@H](c3ccccc3)OC(=O)[C@H]1[C@@H]2C(N)=O , answer whether its z-score meets or surpasses -0.3.
## Result Met

## Task Does CC(C)=C1C(=O)C(c2ccccc2)=C2CN3C(=O)N(CCc4ccccc4)C(=O)[C@]3(C)[C@H]21 have a reported z-score of at least -0.3?
## Result Not met

## Task Is it the case that COc1ccc([Si](C)(C)[C@@H]2[C@@H](CC(=O)N3Cc4ccccc4C[C@H]3CO)O[C@]3(C(=O)N(Cc4ccc(N5CCOC5=O)cc4)c4ccccc43)[C@H]2C)cc1 has z-score reaching or exceeding -0.3?
## Result Met

## Task Textbook exercise: given the entry C=CCOC(=O)[C@@H]1[C@H]2C(=O)O[C@H](c3ccccc3)[C@H](c3ccccc3)N2[C@H](c2ccc(OCCOC(=O)[C@H]3C[C@H]4C(=O)N[C@@H](CCCCN(C)C)C(=O)N4[C@H]3c3ccc(O)cc3)cc2)[C@@]12C(=O)Nc1ccc(I)cc12 , state whether its z-score is greater than or equal to -0.3.
## Result Not met

----------
tested on: Sam68 (KHDRBS1); assay: compounds binding KHDRBS1 protein – biochemical, small-molecule microarray, 635 nm fluorescence, primary screen (AID 1125); settings: higher = more signal;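 further: score merges 667 nm channel intensity with signal to noise over triplicate slides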
readout.type: composite z-score
One number for each entry.

## Task Give its composite z-score value. Item: CN1C(=O)[C@@H]2[C@@H](CC(COc3ccccc3)=C3[C@@H](CCc4ccccc4)OB(O)C[C@@H]32)C1=O
## Result 0.31

## Task So what's the measured composite z-score for this one? O=C(NCCN1CCOCC1)[C@@H]1c2ccccc2C(=O)N(Cc2ccc(OC(F)(F)F)cc2)[C@H]1c1ccc(CO)cc1
## Result 0.686

Items follow; give composite z-score for each.
1. NC(=O)NCC#Cc1ccc2c(c1)[C@]1(C(=O)N2)[C@H](c2ccc(OCCO)cc2)N2[C@H](c3ccccc3)[C@H](c3ccccc3)OC(=O)[C@H]2[C@@H]1C(=O)O
2. O=C1c2ccccc2[C@@]2(Cc3ccccc3N(Cc3ccccc3)C2=O)[C@H](c2ccc(CO)cc2)N1Cc1ccccc1Cl
3. O=C(NCCN1CCOCC1)[C@@H]1c2ccccc2C(=O)N(Cc2ccccc2C(F)(F)F)[C@H]1c1ccc(CO)cc1

## Result
1: -0.761; 2: -0.633; 3: 1.29

Your task in this section: give composite z-score for each listed record.
1. CN(C)c1ccc(C(O)C2C=CC3C(=O)N(Cc4ccccc4)C(=O)C3N2n2cnnc2)cc1 (centres undefined)
2. COC(=O)C(CC#Cc1ccc2c(c1)[C@]1(C(=O)N2)[C@H](C(=O)N2CCc3cc(OC)c(OC)cc3C2)[C@H]2C(=O)O[C@H](c3ccccc3)[C@H](c3ccccc3)N2[C@@H]1c1ccccc1OCCO)C(=O)OC
3. CC(C)=CCCC=C(C)C(O)C1C=CC2C(=O)N(c3ccccc3)C(=O)C2N1Nc1ccc(C#N)cc1 (centres undefined)
4. Cc1ccccc1C(O)C1C=CC2C(=O)N(c3ccccc3)C(=O)C2N1Nc1ccccc1 (centres undefined)
5. C=CC[C@@]1(C(=O)OC)N=C(c2ccc(OCCCO)cc2)O[C@@H]1c1ccccc1N=[N+]=[N-]
6. NC(=O)N1C(=O)C2C(C1=O)C1C=C(CCCO)C2C(c2ccc(CN3CCCC3)cc2)N1Cc1cc2c(cc1Br)OCO2 (centres undefined)
7. COC(=O)[C@H](Cc1ccc(O)cc1)N[C@@H](/C=C/C1CC1)[C@H](O)Cc1ccccc1
8. O=C1N(Cc2ccccc2)c2ccccc2C[C@@]12COC(c1ccc(OCCCO)cc1)=N2

## Result
-0.671
1.3
1.03
1.29
1.29
-0.312
0.0476
1.15

## Task Query (compound): CC(C)(C)N1CC=CC23O[C@@H]4C=CCOC(=O)[C@@H]4[C@H]2C(=O)N(CCO)[C@@H]3C1=O (some centres undefined) ; field requested: composite z-score
## Result -0.738
